molecular target: wild type CaMKII kinase domain (residues 1–283) (Drosophila, UniProt Q00168 1-283); test: ITC
Sequence (Q00168 1-283): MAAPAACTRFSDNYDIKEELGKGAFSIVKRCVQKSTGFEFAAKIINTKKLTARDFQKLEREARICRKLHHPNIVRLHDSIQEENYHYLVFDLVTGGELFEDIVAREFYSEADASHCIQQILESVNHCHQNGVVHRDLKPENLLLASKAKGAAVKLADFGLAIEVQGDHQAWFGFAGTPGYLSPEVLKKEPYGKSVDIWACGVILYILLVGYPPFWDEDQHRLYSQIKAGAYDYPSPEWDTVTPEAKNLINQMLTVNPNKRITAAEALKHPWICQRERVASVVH
Readout kind: pKd
Conceptually, pKd converts a concentration in mol/L into minus its log10.

// lookup pKd for VFPKAPKLQANQAKLARQDTIDEGGEVD (domain or fragment, UniProt Q02280 768-795, looked up)
7.03
